Source of measurements: patent EP4682166A1

Target: T1, human NMI (N-myc Interacting protein) (human, UniProt Q13287 1-307, limits assumed)
T1 construct: Immunogen and ELISA coating antigen; also called hNMI; antigen 1
T1 sequence (looked up): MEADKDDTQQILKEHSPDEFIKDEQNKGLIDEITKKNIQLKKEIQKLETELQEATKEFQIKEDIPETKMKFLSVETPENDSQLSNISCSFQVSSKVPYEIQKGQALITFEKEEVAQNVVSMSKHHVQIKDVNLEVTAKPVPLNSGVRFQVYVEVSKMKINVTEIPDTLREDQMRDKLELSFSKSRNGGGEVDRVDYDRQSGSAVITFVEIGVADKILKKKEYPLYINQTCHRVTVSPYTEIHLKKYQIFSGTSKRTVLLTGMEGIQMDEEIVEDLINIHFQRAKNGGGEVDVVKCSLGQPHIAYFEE
Test: I-ELISA, hNMI coated 1 ug/mL; antibody 156.25 ng/mL
# maps each entry to its OD450
Report the value in OD450 with no unit label.

Consider the reported OD450 for these binders:
INSERT INTO measurements (binder, assay_metric, readout_value) VALUES
  ('39B4 (antibody, V domains shown, Rabbit monoclonal antibody; also called 39B4-1; 39B4-1-biotin (biotin-labelled form)) VH: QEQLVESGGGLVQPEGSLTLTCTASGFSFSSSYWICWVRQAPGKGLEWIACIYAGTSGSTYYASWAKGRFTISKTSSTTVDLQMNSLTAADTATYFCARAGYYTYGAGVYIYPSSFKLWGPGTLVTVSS VL: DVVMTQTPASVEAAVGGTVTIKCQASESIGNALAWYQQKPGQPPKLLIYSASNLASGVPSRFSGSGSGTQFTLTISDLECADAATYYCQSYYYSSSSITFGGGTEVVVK', 'OD450', 1.8),
  ('98G10 (antibody, V domains shown, Rabbit monoclonal antibody; also called 98G10-1; 98G10-1-biotin (biotin-labelled form)) VH: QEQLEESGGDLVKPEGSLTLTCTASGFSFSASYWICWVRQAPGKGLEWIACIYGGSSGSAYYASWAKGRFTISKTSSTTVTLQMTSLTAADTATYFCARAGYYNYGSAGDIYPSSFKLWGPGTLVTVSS VL: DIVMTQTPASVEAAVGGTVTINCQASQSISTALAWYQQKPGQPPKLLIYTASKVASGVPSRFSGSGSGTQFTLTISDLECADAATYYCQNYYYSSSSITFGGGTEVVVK', 'OD450', 1.71),
  ('B-8 (antibody, V domains shown, Rabbit monoclonal antibody; also called B8-1; B-8-biotin (biotin-labelled form)) VH: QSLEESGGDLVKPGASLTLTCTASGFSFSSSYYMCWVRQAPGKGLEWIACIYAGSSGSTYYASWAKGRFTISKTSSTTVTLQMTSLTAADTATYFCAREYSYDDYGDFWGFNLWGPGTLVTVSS VL: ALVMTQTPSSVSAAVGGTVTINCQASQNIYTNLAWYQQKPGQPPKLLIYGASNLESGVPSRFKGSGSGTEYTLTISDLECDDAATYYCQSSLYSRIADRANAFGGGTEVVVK', 'OD450', 1.36),
  ('240B10-1 (antibody, V domains shown, Rabbit monoclonal antibody; also called 240B10-1-biotin (biotin-labelled form)) VH: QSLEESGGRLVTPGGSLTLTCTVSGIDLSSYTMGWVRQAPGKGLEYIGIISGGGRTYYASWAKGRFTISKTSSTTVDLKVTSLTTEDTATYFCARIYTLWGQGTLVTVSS VL: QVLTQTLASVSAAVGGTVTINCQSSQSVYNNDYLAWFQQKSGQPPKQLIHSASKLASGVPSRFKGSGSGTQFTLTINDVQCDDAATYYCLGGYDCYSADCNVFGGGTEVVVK', 'OD450', 1.85);

Okay, now this binder:
Value lookup for OD450; key = 94C4 (antibody, V domains shown, Rabbit monoclonal antibody; also called 94C4-1; 94C4-1-biotin (biotin-labelled form)) VH: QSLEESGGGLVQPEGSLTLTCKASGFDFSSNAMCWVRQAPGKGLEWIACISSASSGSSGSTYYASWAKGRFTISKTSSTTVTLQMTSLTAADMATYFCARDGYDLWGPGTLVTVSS VL: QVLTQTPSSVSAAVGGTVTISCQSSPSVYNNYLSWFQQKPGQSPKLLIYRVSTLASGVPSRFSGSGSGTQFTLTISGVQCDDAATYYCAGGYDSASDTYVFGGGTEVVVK 1.93
